Molecular target: T1, DpdA wild type (Salmonella enterica subsp. enterica …, UniProt P0DW33 1-416)
T1 sequence: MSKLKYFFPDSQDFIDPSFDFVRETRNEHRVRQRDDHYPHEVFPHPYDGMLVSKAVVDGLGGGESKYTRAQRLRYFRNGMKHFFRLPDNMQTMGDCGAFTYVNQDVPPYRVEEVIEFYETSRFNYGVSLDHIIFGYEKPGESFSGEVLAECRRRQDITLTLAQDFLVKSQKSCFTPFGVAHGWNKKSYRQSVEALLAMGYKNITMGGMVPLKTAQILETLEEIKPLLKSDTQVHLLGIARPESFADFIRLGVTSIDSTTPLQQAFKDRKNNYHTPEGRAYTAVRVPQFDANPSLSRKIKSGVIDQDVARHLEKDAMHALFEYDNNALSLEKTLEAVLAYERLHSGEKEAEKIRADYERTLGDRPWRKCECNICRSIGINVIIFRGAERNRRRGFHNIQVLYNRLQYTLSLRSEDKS
Assay: EMSA
value-type: Kd (µM)
Give just the numeric value; µM need not be written.

Quote Kd reported for 28 bp DNA duplex spiked with 1% 6-FAM-labeled strand (dsDNA) DNA 1: GGGGTTTTCGCCAGCTGGCGTTTTGGGG DNA 2: CCCCAAAACGCCAGCTGGCGAAAACCCC please.
3.4
